Test: Stability in simulated gastric fluid
Assay type: in vitro ADME
Conditions: 2 μM, 37° C., 24 h, pH 1.5, pepsin
The entries below come with measured % degradation in 24 h when incubated with simulated gastric fluid values attached.
Express the result in % but write the number alone.

molecule	meas-value
CCc1cc(OC)ccc1-c1ccc(CC(NC(=O)[C@H](CC(=O)O)NC(=O)[C@H](CO)NC(=O)[C@@H](NC(=O)C(C)(Cc2ccccc2F)NC(=O)[C@@H](NC(=O)CNC(=O)[C@H](CCC(N)=O)NC(=O)[C@H](CO)NC(=O)[C@@H](N)Cc2c[nH]cn2)[C@@H](C)O)[C@@H](C)O)C(=O)NC(Cc2ccc(-c3ccccc3C)cc2)C(N)=O)cc1 (single isomer, unassigned) [compound 21]	12
CCc1cc(OC)ccc1-c1ccc(CC(NC(=O)[C@H](CC(=O)O)NC(=O)[C@H](CO)NC(=O)[C@@H](NC(=O)C(C)(Cc2ccccc2F)NC(=O)[C@@H](NC(=O)CNC(=O)[C@H](CCC(N)=O)NC(=O)C(C)(C)NC(=O)[C@@H](N)Cc2c[nH]cn2)[C@@H](C)O)[C@@H](C)O)C(=O)NC(Cc2ccc(-c3ccccc3C(F)(F)F)cc2)C(N)=O)cc1 (single isomer, unassigned) [compound 32]	00

Now, please, on to the next molecule.
INPUT: # input molecule: CCc1cc(OC)ccc1-c1ccc(CC(NC(=O)[C@H](CC(=O)O)NC(=O)[C@H](CO)NC(=O)[C@@H](NC(=O)C(C)(Cc2ccccc2F)NC(=O)[C@@H](NC(=O)CNC(=O)[C@H](CCC(N)=O)NC(=O)C2(NC(=O)[C@@H](N)Cc3c[nH]cn3)CC2)[C@@H](C)O)[C@@H](C)O)C(=O)NC(Cc2ccc(-c3ccccc3C(F)(F)F)cc2)C(N)=O)cc1 (single isomer, unassigned) [compound 36] ; wanted: its % degradation in 24 h when incubated with simulated gastric fluid
OUTPUT: 00

###

Test: Stability in simulated intestinal fluid
Type: in vitro ADME
Settings: 2 μM, 37° C., 24 h, pH 7.5
Quick reference for % degradation in 24 h when incubated with simulated intestinal fluid among some compounds
In your response, the unit should come after the numeric value.

# example entries with known answers
compound	meas-value
CCc1cc(OC)ccc1-c1ccc(CC(NC(=O)[C@H](CC(=O)O)NC(=O)[C@H](CO)NC(=O)[C@@H](NC(=O)C(C)(Cc2ccccc2F)NC(=O)[C@@H](NC(=O)CNC(=O)[C@H](CCC(N)=O)NC(=O)[C@H](C)NC(=O)[C@@H](N)Cc2c[nH]cn2)[C@@H](C)O)[C@@H](C)O)C(=O)NC(Cc2ccc(-c3ccccc3C(F)(F)F)cc2)C(N)=O)cc1 (single isomer, unassigned) [compound 28]	42%
CCc1cc(OC)ccc1-c1ccc(CC(NC(=O)[C@H](CC(=O)O)NC(=O)[C@H](CO)NC(=O)[C@@H](NC(=O)[C@H](Cc2ccccc2)NC(=O)[C@@H](NC(=O)CNC(=O)[C@H](CCC(N)=O)NC(=O)C2(NC(=O)[C@@H](N)Cc3c[nH]cn3)CC2)[C@@H](C)O)[C@@H](C)O)C(=O)NC(Cc2ccc(-c3ccccc3C)nc2)C(N)=O)cc1 (single isomer, unassigned) [compound 18]	00%

Lab note: next compound to report on.
INPUT: Query: % degradation in 24 h when incubated with simulated intestinal fluid; subject: CCc1cc(OC)ccc1-c1ccc(CC(NC(=O)[C@H](CC(=O)O)NC(=O)[C@H](CO)NC(=O)[C@@H](NC(=O)[C@H](Cc2ccccc2)NC(=O)[C@@H](NC(=O)CNC(=O)[C@H](CCC(N)=O)NC(=O)C(C)(C)NC(=O)[C@@H](N)Cc2c[nH]cn2)[C@@H](C)O)[C@@H](C)O)C(=O)NC(Cc2ccc(-c3ccccc3C)cc2)C(N)=O)cc1 (single isomer, unassigned) [compound 13]
OUTPUT: 00%
